# System: Fibroblast
# PROTOCOL: Multiplex assay against human fibroblast
# Type: toxicity, cell-based
# TEST PARAMETERS: 48 h, 10 µM, compound concentration 10 uM, replicate 1
Given measured Population Pyknosed Nuclei (%), output criterion met if it is greater than or equal to 10% and criterion not met if not.

As a guide, the following entries are already answered.
MOLECULE	MEASURED ON	LABEL CLASS
O=C(NCCO)c1cccc(-c2cc(Nc3ccc(OC(F)(F)F)cc3)ncn2)c1	Fibroblast	criterion met
CCNC1(C(N)=O)CCN(c2ncnc3c2nc(-c2ccccc2Cl)n3-c2ccc(Cl)cc2)CC1	Fibroblast	criterion not met
CC1(COc2ccc3c(c2)ncn3-c2ccc3cccc(N4CCC(N)CC4)c3n2)COC1	Fibroblast	criterion met
CN1CCN(c2nc3cc(C(F)(F)F)ccc3n3cccc23)CC1.O=C(O)/C=C\C(=O)O.O=C(O)/C=C\C(=O)O	Fibroblast	criterion not met
O=C(O)Cc1ccccc1Nc1c(Cl)cccc1Cl	Fibroblast	criterion met

input: Has `c1cc(OCCCN2CCCCC2)ccc1CN1CCCCC1` a recorded Population Pyknosed Nuclei (%) greater than or equal to 10%?
output: criterion not met

input: Has Cc1ccc(C(C)(O)c2nc3ccccc3s2)c(C)c1 (centres undefined) a recorded Population Pyknosed Nuclei (%) greater than or equal to 10%?
output: criterion not met

input: Has `CN(C)c1ccnc2sc3c(=O)n(N4CCCCCC4)cnc3c12` a recorded Population Pyknosed Nuclei (%) greater than or equal to 10%?
output: criterion met

input: Has O=S(=O)(c1ccccc1)c1cnc2c(N3CCNCC3)cccc2c1 [INTEPIRDINE] a recorded Population Pyknosed Nuclei (%) greater than or equal to 10%?
output: criterion not met

input: Has `CN(C)CCCc1cc(C(=O)Nc2ccc(-c3ccncc3)cc2)ccc1O.Cl.Cl` a recorded Population Pyknosed Nuclei (%) greater than or equal to 10%?
output: criterion met

input: Has `CCCn1c(=O)c2[nH]c(C3CCCC3)nc2n(CCC)c1=O` a recorded Population Pyknosed Nuclei (%) greater than or equal to 10%?
output: criterion met

input: Has COc1ccc2c(c1)C(C(=O)N(Cc1ccc(N(C)C)cc1)c1ccc(C(C)C)cc1)CCC2.Cl (centres undefined) a recorded Population Pyknosed Nuclei (%) greater than or equal to 10%?
output: criterion not met

input: Has `CC(=O)O[C@H]1C(=O)[C@@]2(C)[C@H]([C@H](OC(=O)c3ccccc3)[C@]3(O)C[C@H](OC(=O)[C@H](O)[C@@H](NC(=O)c4ccccc4)c4ccccc4)C(C)=C1C3(C)C)[C@]1(OC(C)=O)CO[C@@H]1C[C@@H]2O` a recorded Population Pyknosed Nuclei (%) greater than or equal to 10%?
output: criterion met

input: Has `COc1cc(C(=O)N(CCCc2ccccc2)Cc2ccc(CC(=O)O)cc2)cc(OC)c1C` a recorded Population Pyknosed Nuclei (%) greater than or equal to 10%?
output: criterion not met

input: Has `CC(C)(C)c1ccc(S(=O)(=O)Nc2ccc(Cl)cc2C(=O)c2cc[n+]([O-])cc2)cc1` a recorded Population Pyknosed Nuclei (%) greater than or equal to 10%?
output: criterion met

input: Has CSc1ccccc1N1CCN(CCCCCC(=O)NC2CCCc3ccccc32)CC1.Cl (centres undefined) a recorded Population Pyknosed Nuclei (%) greater than or equal to 10%?
output: criterion met
